System: TAB113
Test: qHTS profiling for inhibitors of Plasmodium falciparum proliferation (AID 504749); further: nearly all actives have a fitted effect of over 60% in size
Details: P. falciparum in erythrocytes, SYBR Green DNA, 72 h; series mostly up to 28.7 µM
Results filed as inconclusive are left out. Calls of active or inactive are those of the source. The call rests on the fitted dose curve; in most records, active means well fitted inhibition curve with a large enough effect; inconclusive means small, poorly fitted or top-dose-only effect; inactive means flat fitted curve, though single readings scatter.
Form entry, call: pick from true = active, false = inactive

Hey, what did the test say about CC12C=CC(=O)C=C1[C@@H](F)CC1C2C(O)CC2(C)C1CC[C@]2(O)C(=O)CO (stereo not given in full) ?
false

Hey, what did the test say about O=C(O)Cc1sc(-c2ccc(Cl)cc2)nc1-c1ccccc1 ?
false

Hey, what did the test say about COC(=O)C1C2CC3c4[nH]c5cc(OC)ccc5c4CCN3CC2CC(OC)C1OC (stereo not given) ?
false

Hey, what did the test say about CO/N=C(/C(=O)N[C@@H]1C(=O)N2C(C(=O)O)=C(CSc3cnns3)CS[C@H]12)c1csc(N)n1 ?
false

Hey, what did the test say about C[C@@](Cc1ccccc1)(NC(=O)CN)c1ccccc1 ?
false

Hey, what did the test say about O=C(O)C(O)c1ccccc1 (stereo not given) ?
false

Hey, what did the test say about CC(=O)NC1[C@H]([C@H](O)[C@H](O)CO)OC(C(=O)O)=C[C@H]1N=C(N)N (stereo not given in full) ?
false

Hey, what did the test say about CC(O)C1CCC2C3CCC4CC(O)CCC4(C)C3CCC12C (stereo not given) ?
false

Hey, what did the test say about CCC(=O)O[C@]1(C(=O)CCl)[C@@H](C)CC2C3C[C@H](F)C4=CC(=O)C=CC4(C)[C@@]3(F)C(O)CC21C (stereo not given in full) ?
true

Hey, what did the test say about O=C1CC[C@H](C(=O)N[C@@H]2C[C@H]2c2ccccc2)N1 ?
false

* * *

Assay: MultiTox-Fluor Cytotoxicity Assay - LYMP1-002 - Dead Cells (AID 960); further: nearly all actives have a fitted effect of over 60% in size
Details: LYMP1-002 lymphoblastoid cells, dead-cell protease fluorescence; series mostly up to 46.1 µM
Inconclusive results are not listed. Active and inactive are the calls of the source. Calls follow the shape of the dose curve; as a rule, active = well fitted cell-killing curve with a large enough effect; inconclusive = small, poorly fitted or top-dose-only effect, or effect the other way; inactive = no such curve, though single readings can be large or run the other way.
Form entry, call: pick from active, inactive

Hey, what did the test say about Cc1cccc(O)c1C ?
inactive

Hey, what did the test say about Nc1ccc2cc3ccccc3cc2c1 ?
inactive

Hey, what did the test say about c1ccc2c(c1)ccc1cc3c(ccc4ccccc43)cc12 ?
inactive

Hey, what did the test say about O=[N+]([O-])c1cc([N+](=O)[O-])c2ccc(S(=O)(=O)O)cc2c1O ?
inactive

Hey, what did the test say about CC(=O)Nc1ccc(C(=O)CCl)cc1 ?
active

Hey, what did the test say about c1ccc2c(c1)-c1cccc3c1c-2cc1ccccc13 ?
inactive

Hey, what did the test say about C=CC(=O)OCCOCCOC(=O)C=C ?
active

Hey, what did the test say about Oc1ccc2cc(SSc3ccc4cc(O)ccc4c3)ccc2c1 ?
inactive

Hey, what did the test say about O=C(/C=C/c1ccc(O)c(O)c1)OC1C[C@](O)(C(=O)O)C[C@@H](O)[C@H]1O (stereo not given in full) ?
inactive

Hey, what did the test say about CCCCCCCC[N+](CCCCCCCC)(CCCCCCCC)CCCCCCCC ?
active

Hey, what did the test say about O=Cc1ccc(Cl)c(Cl)c1 ?
inactive

Hey, what did the test say about C/C=C1\C(=O)C[C@H]2[C@@H]3CCC4=CC(=O)CC[C@]4(C)[C@H]3CC[C@]12C ?
active

Hey, what did the test say about CN1[C@H]2CC(OC(=O)[C@H](CO)c3ccccc3)C[C@H]1[C@H]1O[C@H]12 (stereo not given in full) ?
inactive

Hey, what did the test say about C=C(C)c1ccccc1 ?
inactive

Hey, what did the test say about Cc1cc(O)c(C(C)(C)C)cc1Sc1cc(C(C)(C)C)c(O)cc1C ?
active

* * *

Test system: ATS189
Test: qHTS profiling for inhibitors of Plasmodium falciparum proliferation (AID 504749); further: nearly all actives have a fitted effect of over 60% in size
Conditions: P. falciparum in erythrocytes, SYBR Green DNA, 72 h; series mostly up to 28.7 µM
Inconclusive results are not listed. Calls of active or inactive are those of the source. Calls follow the shape of the dose curve; as a rule, active = well fitted inhibition curve with a large enough effect; inconclusive = small, poorly fitted or top-dose-only effect; inactive = flat fitted curve, though single readings scatter.
Form entry, call: pick from Yes (active), No (inactive)

Hey, what did the test say about CC(C)(C)C(=O)OCC(=O)C1CCC2C3CCC4=CC(=O)CCC4(C)C3CCC12C (stereo not given) ?
No

Hey, what did the test say about Nc1nc(Cl)nc2c1ncn2[C@@H]1O[C@H](CO)[C@H](O)C1F (stereo not given in full) ?
No

Hey, what did the test say about NCCCCC(N)C(=O)O (stereo not given) ?
No

Hey, what did the test say about COc1cccc2c1C(=O)c1c(O)c3c(c(O)c1C2=O)C[C@@](O)(C(=O)CO)C[C@@H]3OC1CC(N)C(O)C(C)O1 (stereo not given in full) ?
Yes

Hey, what did the test say about CC(=O)C1(O)Cc2c(O)c3c(c(O)c2C(OC2CC(N)C(O)C(C)O2)C1)C(=O)c1c(O)cccc1C3=O (stereo not given) ?
Yes

Hey, what did the test say about C[C@@H](O)[C@@H]1C(=O)N2C(C(=O)O)=C([C@H]3CCCO3)S[C@H]12 ?
No

Hey, what did the test say about CCCSS/C(CCO)=C(/C)N(C=O)Cc1cnc(C)nc1N ?
No

Hey, what did the test say about COc1ccc2cc1Oc1cc3c(cc1OC)CC[N+](C)(C)C3Cc1ccc(cc1)Oc1c(OC)c(OC)cc3c1C(C2)[N+](C)(C)CC3 (stereo not given) ?
No

Hey, what did the test say about CC(O)C(N)C(=O)O (stereo not given) ?
No

Hey, what did the test say about Nc1nc(F)nc2c1ncn2[C@@H]1O[C@H](CO)[C@@H](O)[C@H]1O ?
No

Hey, what did the test say about C[C@@H]1CC2C3CCC4=CC(=O)C=C[C@]4(C)[C@@]3(F)[C@@H](O)C[C@]2(C)[C@@]1(O)C(=O)COC(=O)c1cccc(S(=O)(=O)O)c1 (stereo not given in full) ?
No

Hey, what did the test say about CC(c1ncncc1F)[C@](O)(Cn1cncn1)c1ccc(F)cc1F (stereo not given in full) ?
No

Hey, what did the test say about CC1OC(OC2CCC3(C)C(CCC4C3CC(O)C3(C)C(C5=CC(=O)OC5)CCC43O)C2)CC(O)C1OC1CC(O)C(OC2CC(O)C(OC3OC(CO)C(O)C(O)C3O)C(C)O2)C(C)O1 (stereo not given) ?
No

Hey, what did the test say about CCCC[C@H]1C(=O)N(c2ccccc2)N(c2ccc(O)cc2)C1=O ?
No

Hey, what did the test say about CC(C)(C)NC[C@H](O)CSc1nc(-c2ccc(C(N)=O)s2)cs1 ?
No

Hey, what did the test say about COC(=O)C1C2CC3c4[nH]c5cc(OC)ccc5c4CCN3CC2CC(OC)C1OC (stereo not given) ?
No

Hey, what did the test say about CC(=O)NC1[C@H](O)C[C@@](O)(C(=O)O)O[C@H]1[C@H](O)[C@H](O)CO (stereo not given in full) ?
No

Hey, what did the test say about CC1(C)SC2C(NC(=O)C(C(=O)O)c3ccccc3)C(=O)N2C1C(=O)O (stereo not given) ?
No

Hey, what did the test say about CC1OC(OC2C(O)CC(OC3C(O)CC(OC4CCC5(C)C(CCC6C5CCC5(C)C(C7=CC(=O)OC7)CCC65O)C4)OC3C)OC2C)CC(O)C1O (stereo not given) ?
No

Hey, what did the test say about O=C(OC[C@@H]1O[C@@](O)(COC(=O)c2cccnc2)[C@H](OC(=O)c2cccnc2)[C@H]1OC(=O)c1cccnc1)c1cccnc1 ?
No

Hey, what did the test say about CC1(C)O[C@@H]2C[C@H]3[C@@H]4CCC5=CC(=O)C=C[C@]5(C)[C@H]4C(O)C[C@]3(C)[C@]2(C(=O)CO)O1 (stereo not given in full) ?
No

Hey, what did the test say about CNC1C(O)C(OC2C(NC(=O)C(O)CN)CC(N)C(OC3OC(CN)C(O)C(O)C3O)C2O)OCC1(C)O (stereo not given) ?
No

Hey, what did the test say about NC(=O)OC[C@@H]1[C@H](NC(=O)/C(=N/OCC(=O)O)c2csc(N)n2)C(=O)N1S(=O)(=O)O ?
No

Hey, what did the test say about CO/N=C(/C(=O)N[C@@H]1C(=O)N2C(C(=O)O)=C(CSC(=O)c3ccco3)CSC12)c1csc(N)n1 (stereo not given in full) ?
No

Hey, what did the test say about CCCC(=O)O[C@]1(C(=O)COC(C)=O)CC[C@H]2C3C[C@H](F)C4=CC(=O)C=CC4(C)[C@@]3(F)[C@@H](O)CC21C (stereo not given in full) ?
No

Hey, what did the test say about CC1OC(OCC2OC(Oc3c(-c4ccc(OCCO)c(OCCO)c4)oc4cc(OCCO)cc(O)c4c3=O)C(O)C(O)C2O)[C@@H](O)C(O)C1O (stereo not given in full) ?
No

Hey, what did the test say about CCCCCOC(=O)Nc1nc(=O)n(C2O[C@H](C)[C@@H](O)[C@@H]2O)cc1F (stereo not given in full) ?
No

Hey, what did the test say about O=c1[nH]c(=O)n(C2C[C@H](O)[C@@H](CO)O2)cc1C(F)(F)F (stereo not given in full) ?
No

Hey, what did the test say about CC[C@@]1(O)CC2CN(CCc3c([nH]c4ccccc34)[C@](C(=O)OC)(c3cc4c(cc3OC)N(C)C3[C@@](O)(C(=O)OC)C(OC(C)=O)[C@]5(CC)C=CCN6CC[C@@]43C65)C2)C1 (stereo not given in full) ?
Yes

Hey, what did the test say about COc1cccc(OC)c1C(=O)NC1C(=O)N2C1SC(C)(C)C2C(=O)O (stereo not given) ?
No

Hey, what did the test say about CNC1CCc2cc(OC)c(OC)c(OC)c2-c2ccc(OC)c(=O)cc21 (stereo not given) ?
No

Hey, what did the test say about Nc1nc2[nH]cc(CCc3ccc(C(=O)NC(CCC(=O)O)C(=O)O)cc3)c2c(=O)[nH]1 (stereo not given) ?
Yes

Hey, what did the test say about O=C1NC(=O)C2C3C=CC(C3)C12 (stereo not given) ?
No

Hey, what did the test say about O=C(O)C(O)c1ccccc1 (stereo not given) ?
No

Hey, what did the test say about CC(O)C1CCC2C3CCC4CC(O)CCC4(C)C3CCC12C (stereo not given) ?
No
